Every entry's value here was drawn from the supplement of paper PMC11208160.

# TEST METHOD NOTES: recombinant barcode read abundance after kanamycin selection (control-corrected) (log10(CPM+1)); higher = more efficient recombination; sequences stand for … in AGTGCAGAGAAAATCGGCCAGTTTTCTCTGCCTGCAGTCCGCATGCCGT…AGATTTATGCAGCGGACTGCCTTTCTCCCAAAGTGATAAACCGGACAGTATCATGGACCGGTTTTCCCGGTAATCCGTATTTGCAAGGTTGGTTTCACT; site = the 11-nt target;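 further: IS621 recombinase and bridge RNA in Escherichia coli cells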
PROPERTY MEASURED: recombinant barcode read abundance (log10)
No unit in the answer, please; the number alone is enough.

Illustrative cases are given below, each with its answer.
# SEQUENCE CONTENT, REPORTED RESULT
rows = [
    ("GGGTCCACTTGGGTTCTAACCTGTTGCTT (site GGGTCCACTAG)", 1.11),
    ("ACACTAGCTTGGGTTCTAACCTGTTGCTG (site ACATTAGCTCA)", 0.0774),
]

GET /value?item= TTGCGTGCTTGGGTTCTAACCTGTTGCTT (site TTGCGTGCTAA) &field=recombinant barcode read abundance (log10) returns 0.518

recombinant barcode read abundance (log10) measured on CCAAGATCTTGGGTTCTAACCTGTTGCCT (site CTAAGATCTAG) = 0.46

Field recombinant barcode read abundance (log10) (entry CACTCTCCTTGGGTTCTAACCTGTTGCAT (site CACTCTCCTAT) ) reads 0.728
